Cut-off 100 °C on melting point, inclusive. At or above means fulfilled; below means not fulfilled.

compound: Cn1nnc2cc(OC3SCC(O)C(O)C3O)ccc21 (stereo not drawn)
category.label: fulfilled

compound: COc1ccc(Nc2nc(Cl)nc(NC3CCCCCC3)n2)cc1Cl
category.label: fulfilled

compound: Nc1cc(F)c(Sc2ccc(C(F)(F)F)cc2Cl)cc1F
category.label: not fulfilled

compound: CC(=O)n1ncc2c(OCC3CO3)cccc21 (stereo not drawn)
category.label: not fulfilled

compound: Cc1ccc(C2C3=C(CC(C)(C)CC3=O)NC3=C2C(=O)CC(C)(C)C3)cc1[N+](=O)[O-]
category.label: fulfilled

compound: O=C1c2ccccc2C(=O)c2sc(-c3ccccc3)nc21
category.label: fulfilled

compound: COc1ccc(CN2C(=O)C(C)(c3cc(NC=O)ccc3Cl)c3cc(Cl)ccc32)c(OC)c1 (stereo not drawn)
category.label: fulfilled

compound: O=C(CCl)Nc1nc2cc3nc(NC(=O)CCl)sc3cc2s1
category.label: fulfilled

---

Listed here are compounds together with their documented melting point.

compound: Nn1cnc2cc(C(F)(F)F)ccc21
melting point: 140 to 142 °C

compound: CCOC(=O)C1=Cc2c3c(c(C(=O)OCC)cc2=N1)=Nc1cnccc1-3
melting point: 198 to 201 °C

compound: CC(C)=CCOC(C)C1CCC2=C3C=CC4C(C)(C)C(OC(=O)CCC(=O)O)CCC4(C)C3CCC21C (stereo not drawn)
melting point: 96 to 99 °C

compound: CNC(=O)c1ccccc1C(O)(c1ccc(Cl)cc1)c1ccccc1CN(C)C (stereo not drawn)
melting point: 154 to 156 °C

compound: O=C(O)c1cn(-c2ccc(F)cc2)c(-c2ccc(N=Cc3ccc([N+](=O)[O-])o3)cc2)cc1=O
melting point: 129 to 131 °C

compound: O=C(NCCNCc1cc2cc(O)ccc2o1)C12CC3CC(CC(C3)C1)C2
melting point: 140 to 143 °C

compound: O=[N+]([O-])c1oc2ccccc2c1-n1ccnc1
melting point: 147 to 149 °C

compound: O=C(c1ccc(-c2ccccn2)cc1)N1Cc2cccn2Cc2ccccc21
melting point: 170 to 172 °C

compound: COC1(c2cc(F)cc(OCc3ccc4c(c3)CCC(=S)N4C)c2)CCOCC1
melting point: 136 to 138 °C

compound: Cc1ccc(C(=O)NN(C(=O)c2cc(Cl)sc2Cl)C(C)(C)C)cc1
melting point: 163 to 165 °C

compound: Cc1cccc(-c2nc(-c3ccc(F)cc3)sc2-c2ccnc(N)c2)c1
melting point: 160 to 162 °C

compound: N=C(Nc1ccc(Cl)cc1)Nc1ncccc1OCc1c(F)cccc1Cl
melting point: 168 to 170 °C

compound: CN(CCc1ccccc1)C(=O)Cn1cc(C=CC=CC(=O)O)c2cc(OCc3ccccc3)ccc21
melting point: 189 to 190 °C

---

metric: melting point

compound: CCOC(=O)C(C)N1c2ccccc2Sc2ccc(C#N)cc21 (racemic)
metric: melting point
reading: 117 to 118 °C
--
compound: COC(=O)Oc1c(C(=O)c2ccc(Cl)cc2Cl)c(C)nn1C
metric: melting point
reading: 86 to 88 °C
--
compound: O=C(O)c1ccc(=O)n(CCNC(=O)c2ccccn2)c1
metric: melting point
reading: 266 to 268 °C
--
compound: CCCCCCCCCCCCCCOc1ccc(C(=O)Oc2ccc(-c3ncc(C(=O)O[C@@H](C)CCCCCC)cn3)cc2)cc1
metric: melting point
reading: 85.4 °C
--
compound: CC(=O)C(=NNc1cccc(C(F)(F)F)c1)C(C)=O
metric: melting point
reading: 108 to 109 °C
--
compound: CC(C)N(Cc1ccc(Br)cc1)C(=S)Nc1ccccc1
metric: melting point
reading: 134 °C
--
compound: CCCCC(F)c1nc[nH]c(=O)c1Cl (centres undefined)
metric: melting point
reading: 157 to 160 °C
--
compound: OCc1ccccc1C(F)(F)C(F)(F)c1ccccc1
metric: melting point
reading: 80 to 81 °C
--
compound: N#Cc1ccc(S(=O)(=O)N2CCn3c(c(C(N)=O)c(Cl)c3-c3ccccc3)C2)cc1
metric: melting point
reading: 205 to 206 °C
